# targetOrTestSystem: UniProt:P35354
# Sequence (P35354 18-604): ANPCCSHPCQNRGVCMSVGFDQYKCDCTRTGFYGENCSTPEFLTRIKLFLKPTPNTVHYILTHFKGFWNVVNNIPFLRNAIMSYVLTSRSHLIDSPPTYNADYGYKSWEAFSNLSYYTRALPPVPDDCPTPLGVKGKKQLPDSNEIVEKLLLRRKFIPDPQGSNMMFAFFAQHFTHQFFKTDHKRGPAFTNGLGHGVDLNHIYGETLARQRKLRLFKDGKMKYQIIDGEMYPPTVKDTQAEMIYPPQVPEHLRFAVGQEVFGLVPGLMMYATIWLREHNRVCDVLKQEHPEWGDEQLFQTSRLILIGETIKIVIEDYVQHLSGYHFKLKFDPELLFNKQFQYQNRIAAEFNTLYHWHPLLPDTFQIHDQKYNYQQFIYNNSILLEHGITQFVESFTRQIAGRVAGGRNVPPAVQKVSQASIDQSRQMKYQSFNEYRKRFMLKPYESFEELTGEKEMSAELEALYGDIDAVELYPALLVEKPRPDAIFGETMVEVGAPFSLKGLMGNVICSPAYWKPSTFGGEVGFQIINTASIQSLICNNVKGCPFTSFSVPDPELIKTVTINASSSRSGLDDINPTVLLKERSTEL
# testSummary: Inhibitory activity on COX-2 (PGE2 production from arachidonic acid, PGE2 ELISA; Needleman method)
# conditionSet: 1 mM arachidonic acid, 1 μM hematin, pH 8.0, 37° C., 10 min
testReadout: log10(IC50) (log10 of the value in µM)
Field: value | Transform: log10 | Quantity: IC50 | Unit: µM

### Prompt Sample NS(=O)(=O)c1ccc(-c2cc3cccccc-3c2-c2ccccc2)cc1 — what was its log10(IC50)?
### Response -2.07

### Prompt Data request, read-out log10(IC50), for COc1ccc(-c2c3cccccc-3cc2-c2ccc(S(N)(=O)=O)cc2)cc1Cl
### Response -2.47

### Prompt So what's the measured log10(IC50) for this one? CS(=O)(=O)c1ccc(-c2cc3cccccc-3c2-c2ccc(F)c(Cl)c2)cc1
### Response -1.08

### Prompt I am curious: what log10(IC50) value has been reported for Cc1ccc(-c2c3cccccc-3cc2-c2ccc(S(C)(=O)=O)cc2)cc1Cl ?
### Response -2.31

### Prompt Name the recorded log10(IC50) for Cc1ccc(-c2c3cccccc-3cc2-c2ccc(S(N)(=O)=O)cc2)cc1Cl .
### Response -2.59

### Prompt # get_value(readout='log10(IC50)', item= CS(=O)(=O)c1ccc(-c2cc3cccccc-3c2-c2ccc(Cl)cc2)cc1 )
### Response -1.52

### Prompt // lookup log10(IC50) for COc1ccc(-c2c3cccccc-3cc2-c2ccc(S(C)(=O)=O)cc2)cc1F
### Response -2.08

### Prompt Quick one: log10(IC50) for CS(=O)(=O)c1ccc(-c2cc3cccccc-3c2-c2ccccc2)cc1 ?
### Response -0.12

### Prompt I'd like to know its log10(IC50). The compound in question is CS(=O)(=O)c1ccc(-c2c(F)c3cccccc-3c2-c2ccccc2)cc1
### Response 0.90

### Prompt Return reported log10(IC50); argument: NS(=O)(=O)c1ccc(-c2cc3cccccc-3c2-c2ccc(F)c(Cl)c2)cc1
### Response -1.92

### Prompt Recorded log10(IC50) for Cc1cccc(-c2c3cccccc-3cc2-c2ccc(S(N)(=O)=O)cc2)c1 , please?
### Response -0.30

### Prompt What does the record list as log10(IC50) for Cc1cccc(-c2c3cccccc-3cc2-c2ccc(S(C)(=O)=O)cc2)c1 ?
### Response -1.32

### Prompt Give the measured log10(IC50) of COc1ccc(-c2c3cccccc-3cc2-c2ccc(S(C)(=O)=O)cc2)cc1 .
### Response 0.57

### Prompt For the compound NS(=O)(=O)c1ccc(-c2cc3cccccc-3c2-c2cccc(F)c2)cc1 , what log10(IC50) is on record?
### Response -0.11

### Prompt Given the entry Cc1ccc(-c2c3cccccc-3cc2-c2ccc(S(C)(=O)=O)cc2)cc1 , report its measured log10(IC50).
### Response 0.87

### Prompt Give its log10(IC50) value. Item: COc1ccc(-c2c3cccccc-3cc2-c2ccc(S(N)(=O)=O)cc2)cc1OC
### Response -0.54

### Prompt Would you mind telling me what log10(IC50) value was observed for COc1ccc(-c2c3cccccc-3cc2-c2ccc(S(N)(=O)=O)cc2)cc1F ?
### Response -1.66

### Prompt Bench note: what log10(IC50) did CS(=O)(=O)c1ccc(-c2cc3cccccc-3c2-c2cccc(Cl)c2)cc1 show?
### Response -2.03

### Prompt Fill in: log10(IC50) of CS(=O)(=O)c1ccc(-c2cc3cccccc-3c2-c2ccc(F)cc2)cc1 is ___
### Response 0.08

### Prompt Fill in the blank: the reported log10(IC50) of COc1cccc(-c2c3cccccc-3cc2-c2ccc(S(N)(=O)=O)cc2)c1 is ____.
### Response 0.40

### Prompt I am curious: what log10(IC50) value has been reported for COc1ccc(-c2c3cccccc-3cc2-c2ccc(S(C)(=O)=O)cc2)cc1OC ?
### Response -1.19

### Prompt # query: log10(IC50) of entry COc1ccc(-c2c3cccccc-3cc2-c2ccc(S(C)(=O)=O)cc2)cc1Cl
### Response -1.72

### Prompt Consider the compound shown here: NS(=O)(=O)c1ccc(-c2cc3cccccc-3c2-c2cccc(Cl)c2)cc1 What is its recorded log10(IC50)?
### Response 0.41

### Prompt What value of log10(IC50) has been recorded for this entry: CS(=O)(=O)c1ccc(-c2cc3cccccc-3c2-c2ccccc2Cl)cc1
### Response 0.84

### Prompt Entry under review: COc1cccc(-c2c3cccccc-3cc2-c2ccc(S(C)(=O)=O)cc2)c1 . Reported log10(IC50)?
### Response 0.68
